# Assay Info: Drug uptake in BALB/c mouse plasma at 1 mg/kg, iv measured after 45 mins by LC-MS method
# Type: ADME, organism-based
Observation Type: concentration at 0.75 h (nM)
Supply the numeric figure in nM, leaving out any unit text.

Query: Which concentration at 0.75 h is listed for `COc1cccc(/C=C/C(=O)c2cc(OC)c(OC)cc2O)c1` ?
Reply: 23

---

# Assay Info: Cytotoxicity against human […] cells assessed as cell growth at 10 uM by Cell titer-Glo assay relative to control
# Format: cell-based
# Details: WI-38 cells, read-out: Activity
The threshold is 70%. Values of viability at 10 µM beneath it are tagged YES; values meeting or exceeding it are tagged NO.

{"Molecule Smiles": "COc1cccc(/C=C/C(=O)c2ccccc2O)c1", "Group Label": "NO"}

Query: Input `COc1ccc(C(=O)/C=C/c2cc(OC)c(OC)c(OC)c2)c(O)c1` ; condition: viability at 10 µM strictly below 70%. Does it hold?
Reply: NO

Query: Input `COc1cc(O)c(C(=O)/C=C/c2cc(OC)c(OC)c(OC)c2)cc1OC` ; condition: viability at 10 µM strictly below 70%. Does it hold?
Reply: NO

Query: Input `COc1ccc(O)c(C(=O)/C=C/c2cc(OC)c(OC)c(OC)c2)c1` ; condition: viability at 10 µM strictly below 70%. Does it hold?
Reply: NO

Query: Input `COc1ccc(/C=C/C(=O)c2cc(OC)ccc2O)cc1` ; condition: viability at 10 µM strictly below 70%. Does it hold?
Reply: YES

Query: Input `COc1ccc(O)c(C(=O)/C=C/c2ccc(OC)c(OC)c2)c1` ; condition: viability at 10 µM strictly below 70%. Does it hold?
Reply: NO

Query: Input `COc1ccc(C(=O)/C=C/c2ccc(OC)c(OC)c2)c(O)c1` ; condition: viability at 10 µM strictly below 70%. Does it hold?
Reply: NO

Reference for the values: ChEMBL document CHEMBL3997782
